# credit: ChEMBL document CHEMBL2311300

Measured pKi values are reported for all entries that follow.
# subject-of-test: Induced myeloid leukemia cell differentiation protein Mcl-1 (Homo sapiens, UniProt Q07820)
# Sequence (Q07820 whole entry): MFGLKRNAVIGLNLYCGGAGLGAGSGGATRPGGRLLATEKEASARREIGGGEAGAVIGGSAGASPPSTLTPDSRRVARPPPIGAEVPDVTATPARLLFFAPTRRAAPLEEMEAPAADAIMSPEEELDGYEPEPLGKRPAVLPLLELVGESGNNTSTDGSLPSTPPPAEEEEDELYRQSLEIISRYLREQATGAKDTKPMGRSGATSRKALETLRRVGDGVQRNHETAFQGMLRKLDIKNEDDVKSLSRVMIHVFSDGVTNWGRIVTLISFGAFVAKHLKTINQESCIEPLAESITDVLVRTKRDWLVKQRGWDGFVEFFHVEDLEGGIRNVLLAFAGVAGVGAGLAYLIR
# protocol-summary: Inhibition of FAM-Bid peptide binding to Mcl1 (unknown origin) expressed in Escherichia coli BL21 by fluorescence polarization-based binding assay
# test-parameters: read-out: Ki
Reminder that pKi is minus the log10 of a molar concentration.

N#Cc1cc(Sc2ccccc2)c[nH]c1=O : 5.48
N#Cc1cc(-c2ccc(Cl)cc2)c[nH]c1=O : 5.09
N#CC(C#N)=c1c(=O)c2cccc3cccc1c32 : 5.55

Switching to the query record.
Record N#Cc1cc(Sc2ccc(N)cc2)c[nH]c1=O , field pKi: 5.27
